From: patent US20210253718A1

- Tested target: T1, FZD1 CRD (Homo sapiens, UniProt Q9UP38)
- T1 construct: D112-P238; GPI anchor signal (C); expressed in transfected cells; host or cells: CHO cells, lentiviral pLenti-puro
- Test: Immunofluorescence of anti-FZD5 Fab binding to CHO cells overexpressing Frizzled CRD
- Set-up: key: −: no binding; +: very weak binder; ++: weak binder; +++: good binder; ++++: very good binder
Measurement label: Immunofluorescence binding, Frizzled CRD overexpressed on CHO cells: FZD1

Fab-2909: anti-FZD5 Fab with antibody variable region Fv-2909; CDR SEQ ID NOs: 35, 36, 48, 87, 124, 161 (antibody, V domains shown) VH: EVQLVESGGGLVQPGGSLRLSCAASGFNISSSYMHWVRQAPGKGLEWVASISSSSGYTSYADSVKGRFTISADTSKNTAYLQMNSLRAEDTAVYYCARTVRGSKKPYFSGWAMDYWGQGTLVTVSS VL: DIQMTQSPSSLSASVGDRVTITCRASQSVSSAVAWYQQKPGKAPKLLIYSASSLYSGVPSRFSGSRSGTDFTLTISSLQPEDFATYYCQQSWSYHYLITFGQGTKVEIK : −
Fab-2935: anti-FZD5 Fab with antibody variable region Fv-2935; CDR SEQ ID NOs: 35, 36, 74, 111, 150, 178 (antibody, V domains shown) VH: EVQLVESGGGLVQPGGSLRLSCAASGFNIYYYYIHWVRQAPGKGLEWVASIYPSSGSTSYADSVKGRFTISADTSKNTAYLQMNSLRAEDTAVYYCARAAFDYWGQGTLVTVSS VL: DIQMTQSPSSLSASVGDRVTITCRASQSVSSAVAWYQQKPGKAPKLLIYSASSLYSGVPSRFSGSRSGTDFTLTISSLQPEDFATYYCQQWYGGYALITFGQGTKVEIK : −
Fab-2920: anti-FZD5 Fab with antibody variable region Fv-2920; CDR SEQ ID NOs: 35, 36, 59, 98, 135, 170 (antibody, V domains shown) VH: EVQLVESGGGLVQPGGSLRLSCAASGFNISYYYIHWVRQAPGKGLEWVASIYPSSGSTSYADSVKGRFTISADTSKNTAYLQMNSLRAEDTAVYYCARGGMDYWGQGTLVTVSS VL: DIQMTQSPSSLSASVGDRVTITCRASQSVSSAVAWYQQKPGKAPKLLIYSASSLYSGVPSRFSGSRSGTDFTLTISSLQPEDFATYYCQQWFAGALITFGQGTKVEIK : −
Fab-2903: anti-FZD5 Fab with antibody variable region Fv-2903; CDR SEQ ID NOs: 35, 36, 42, 81, 118, 155 (antibody, V domains shown) VH: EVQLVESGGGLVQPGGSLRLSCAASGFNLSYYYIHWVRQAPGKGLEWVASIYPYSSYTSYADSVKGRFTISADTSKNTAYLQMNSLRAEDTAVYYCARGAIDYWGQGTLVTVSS VL: DIQMTQSPSSLSASVGDRVTITCRASQSVSSAVAWYQQKPGKAPKLLIYSASSLYSGVPSRFSGSRSGTDFTLTISSLQPEDFATYYCQQWGGGSSLFTFGQGTKVEIK : +
